- assayed-target: TGF-beta1 (hTGF-beta1) (Homo sapiens, UniProt P01137 P01137:279-390)
- Sequence (P01137 279-390, one chain of several): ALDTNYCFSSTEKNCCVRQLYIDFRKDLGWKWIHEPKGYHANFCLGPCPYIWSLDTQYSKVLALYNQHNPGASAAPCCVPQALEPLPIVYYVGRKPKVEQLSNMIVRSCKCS
- method-notes: filter; biphasic; Kd1 3.7±0.6 nM
- condition-context: tags: R&D Systems; biotinylated form (NFTG0) used for BIAcore; chain copies: 2

[
  {
    "binder": "40-06 (ssRNA, 2'-F C and U) RNA: GGGAGGACGAUGCGGUUAGGGGCGUCAACACCGCUAUCAUAAUUUUCGCCUUCCCCAGACGACUCGCCCGA",
    "output-unit": "pM",
    "Kd": 1.6
  }
]
